System: MDA-MB-435
assayName: NCI tumour cell line growth inhibition, 48 h; in the data active = GI50 below about 0.43 µM; inactive = the rest
Mark one answer only. Choices: YES = active, NO = inactive

Query block: What is the recorded call for this compound in the test? `C=C1C(=O)O[C@H]2[C@H]1CC/C(COC(=O)OC/C1=C/CC[C@@]3(C)O[C@H]3[C@H]3OC(=O)[C@@H](CN(C)C)[C@@H]3CC1)=C\CC[C@@]1(C)O[C@@H]21`
Result block: NO

Query block: Write down the call the test reported for this compound. Item: `C[n+]1c2ccccc2nc2ccccc21`
Result block: NO

Query block: Could you please tell me the result logged for `O=C(c1ccco1)c1c(C(F)(F)F)n([O-])c2cc(C(F)(F)F)ccc2[n+]1=O` in this assay?
Result block: NO

Query block: Please let me know the test result on file for `C[C@H]1COCCN1c1cc(C2(S(=O)(=O)C3CC3)CC2)nc(-c2ccc(NC(=S)NCCO)cc2)n1` .
Result block: YES

Query block: Per the assay record, what outcome was assigned to Cc1c(N)nc(C(CC(N)=O)NCC(N)C(N)=O)nc1C(=O)NC(C(=O)NC(C)C(O)C(C)C(=O)NC(C(=O)NCCc1nc(-c2nc(C(=O)NCCCNC(C)c3ccccc3)cs2)cs1)C(C)O)C(OC1OC(CO)C(O)C(O)C1OC1OC(CO)C(O)C(OC(N)=O)C1O)c1cnc[nH]1 (stereo unspecified) ?
Result block: NO

Query block: Assay result, entry C[C@]12CC[C@H]3[C@@H](CC4SC(N)=NC45C/C(=N/NC(N)=O)CC[C@]35C)[C@@H]1CCC2=O (stereo partly specified) — outcome?
Result block: NO

Query block: Please let me know the test result on file for `Cc1cc(OCCOCCC(F)(F)P(=O)(O)O)ccc1CCc1cnc2c(N)nc3cc(CCC(=O)O)ccc3c2c1` .
Result block: NO

Query block: Assay outcome for `O=C(/C=C1\C(=O)N(Cc2ccccc2)c2ccccc21)c1ccc(OCCN2CCCCC2)cc1` : what was it?
Result block: NO

Query block: Which outcome was assigned to `C=C1C(=O)O[C@H]2[C@H]1CC/C(Cn1cc(-c3ccc(F)cc3)nn1)=C\CC[C@@]1(C)O[C@@H]21` in this test?
Result block: NO

Query block: Record request — test call for `N#C/C(=N\Nc1ccccc1)C(=O)Nc1cc(-c2ccccc2)nn1-c1ccccc1`
Result block: NO

Query block: Write down the call the test reported for this compound. Item: CC(C)=CC(=O)N[C@H]1CC[C@]2(C)C3CC[C@]4(C)C(C(C)N(C)C)=CCC4C3CCC2[C@H]1O (stereo partly specified)
Result block: NO

Query block: Write down the call the test reported for this compound. Item: CCC1(OC(=O)CN)C(=O)OCc2c1cc1n(c2=O)Cc2cc3ccccc3nc2-1 (stereo unspecified)
Result block: YES

Query block: How did this test come out for `Cc1nc2ccccn2c1NC(=O)NNC(=S)Nc1ccc(F)cc1` ?
Result block: NO

Query block: What did this assay record as the result for `CC(=O)/C=C/C1=C(c2csc3ccccc23)c2ccccc2CC1` ?
Result block: NO

Query block: Hey, what did the test say about `O=c1oc2cc(OC/C(=N/O)c3ccc(F)cc3)ccc2c2ccccc12` ?
Result block: NO

Query block: Which outcome was entered for the compound `CC(C)c1cccc(O)c(=O)c1` in this test?
Result block: NO

====

Tested on: HCT-15 colon
assayName: NCI tumour cell line growth inhibition, 48 h
reportedProperty: log10 of TGI (log10 of the value in µM)
Friendly reminder: values = log10 of TGI, unit µM.

Query block: Which log10 of TGI value belongs to CC([C@H]1CC=C2C3CCC4=C[C@@H](N(C)C)CC[C@]4(C)C3CC[C@@]21C)N(C)C (stereo partly specified) ?
Result block: 0.58

Query block: Return reported log10 of TGI; argument: `NCCNC(=O)c1cccc2cc3ccccc3nc12`
Result block: 1.18

Query block: For `O=c1oc2cc(OC/C(=N/O)c3ccc(F)cc3)ccc2c2ccccc12` , what is its reported log10 of TGI?
Result block: 1.63

Query block: Entry `COC(=O)c1c2c(c(C)[n+]([O-])c1C)C(=O)C=C(NCc1cccc(Cl)c1)C2=O` : reported log10 of TGI = ?
Result block: 0.18

Query block: Consider the compound shown here: CC1SC2(CCCCC2)N(NC(=O)CSc2nc3ccc(Cl)cc3c(=O)n2-c2ccccc2)C1=O (stereo unspecified) What is its recorded log10 of TGI?
Result block: 1.66

Query block: What log10 of TGI value was documented for this compound, `Cc1c(Cl)cccc1N=NC(=O)NNc1cccc(Cl)c1C` ?
Result block: 1.48

Query block: I have this compound here, `CCCCCCCCCCCCCCCCCCNC(=S)/N=C/c1c(O)c2ccccc2[nH]c1=O` , and I need its recorded log10 of TGI.
Result block: 1.47

Query block: Data request, read-out log10 of TGI, for `C=C1C(=O)O[C@H]2[C@H]1CC/C(COC(=O)CCCc1c[nH]c3ccccc13)=C\CC[C@@]1(C)O[C@@H]21`
Result block: 0.60

Query block: Recorded log10 of TGI of CC(C)=CC(=O)N[C@H]1CC[C@]2(C)C3CC[C@]4(C)C(C(C)N(C)C)=CCC4C3CCC2[C@H]1O (stereo partly specified) , please.
Result block: 0.62

Query block: May I ask what log10 of TGI has been recorded for `CN(C)CCNC(=O)c1cccc2nc3c(C(=O)NCCN(C)C)cccc3nc12` ?
Result block: 1.22

Query block: Given the entry `O=C(Nc1ccc(F)cc1)Nc1ccc(Br)c(C(F)(F)F)c1` , report its measured log10 of TGI.
Result block: 1.03

====

System: SR leukemia
assayName: NCI tumour cell line growth inhibition, 48 h; in the data active = GI50 below about 0.43 µM; inactive = the rest
Permitted responses: active, inactive

Query block: Hi, sorry to bother you, what did the test record for `Cn1nc(C(F)(F)F)c(-c2cc(C(F)(F)F)cc(C(F)(F)F)c2)c1-c1ccc(OCc2ccc(Cl)cc2)cc1O` ?
Result block: inactive

Query block: What did the test return for `O=c1oc2cc(OC/C(=N/O)c3ccc(F)cc3)ccc2c2ccccc12` ?
Result block: inactive

Query block: // return assay outcome for `Nc1nc2cc(CC[C@H]3C[C@@H](n4ccc5c(N)ncnc54)[C@H](O)[C@@H]3O)ccc2cc1Br`
Result block: inactive

Query block: Just curious, what result did `COc1ccc(/C=C2\SC(=Nc3ccccc3)NC2=O)cc1` get here?
Result block: inactive

Query block: Any idea what this test logged for `COc1ccc(NC(=O)c2sc3nc(C)c(C(=O)/C=C/c4cccc(OC)c4)cc3c2N)cc1` ?
Result block: inactive

Query block: GET /call?item= O=CN1N=C(c2cccc(Nc3ccnc4cc(Cl)ccc34)c2)CC1c1ccccc1 (centres undefined) returns the recorded outcome of this test.
Result block: active

Query block: For `C[n+]1c2ccccc2nc2ccccc21` , which call appears in the assay record?
Result block: inactive

Query block: // outcome(item) with item = `O=C(Nc1ccc(F)cc1)Nc1ccc(Br)c(C(F)(F)F)c1`
Result block: inactive

Query block: Please share the test call associated with `Cc1nc2ccccn2c1NC(=O)NNC(=S)Nc1ccc(F)cc1` .
Result block: inactive

Query block: How did this test come out for `Clc1ccc2nc(CI)c(CI)nc2c1` ?
Result block: inactive

Query block: // param item: `CC(=O)/C=C/C1=C(c2csc3ccccc23)c2ccccc2CC1` ; yields the recorded call
Result block: inactive

Query block: Given `NC(N)=NC(N)=NCCCc1ccco1` , state the outcome it received in this test.
Result block: inactive

Query block: What outcome does the record of this test show for `C=C1SC(=Nc2ccccc2Cl)N(C(=O)c2sc3ccccc3c2Cl)C12CCCCC2` ?
Result block: inactive

Query block: Given `O=C(c1ccccc1)c1c(C(F)(F)F)n([O-])c2cc(C(F)(F)F)ccc2[n+]1=O` , state the outcome it received in this test.
Result block: inactive

====

Tested on: MDA-MB-435
assayName: NCI tumour cell line growth inhibition, 48 h
Hi there, I'd appreciate the recorded TGI for every entry that follows.

Query block: Given `C[C@H]1CNC(=O)c2cnn3ccc(nc23)N[C@H](C)c2cc(F)ccc2O1` , state its recorded TGI.
Result block: > 91.2 µM

Query block: Which TGI is listed for `O=[N+]([O-])/C=C(\CS(=O)(=O)c1ccccc1)c1ccc2c(c1)OCO2` ?
Result block: 76.6 µM

Query block: Given `CN(O)C(=O)CCCC(=O)NCC(C)(C)CNC(=O)CCCC(=O)N(C)O` , state its recorded TGI.
Result block: > 100 µM

Query block: Please give the measured TGI for this compound: `CC(=O)C(C(C)=O)[C@@H]1OC(C)(C)O[C@@H]1[C@H]1COC(C)(C)O1`
Result block: > 100 µM

Query block: Please look up its TGI: `CC(C)(C)NC(=O)/C(=C\Sc1ccccc1)c1ccccc1`
Result block: > 100 µM

Query block: Could you share which TGI value was measured for Cc1ccc(S(=O)(=O)N/N=C2\CC3CC4CCC2C4C3)cc1 (centres undefined) ?
Result block: > 100 µM

Query block: Fill in: TGI of O=CN1N=C(c2cccc(Nc3ccnc4cc(Cl)ccc34)c2)CC1c1ccccc1 (centres undefined) is ___
Result block: 0.432 µM

Query block: Sample `CN1CCc2c(sc3ncn(Nc4ccc(Cl)cc4)c(=N)c23)C1` — what was its TGI?
Result block: > 100 µM

Query block: What value of measured TGI is listed for `CCCOP(=O)(OCCC)OC(C(F)(F)F)C(F)(F)F` ?
Result block: > 100 µM

Query block: What value of TGI has been reported for the following compound? `Cc1ccc(N=Nc2c(O)ccc3cc(S(=O)(=O)O)ccc23)cc1`
Result block: > 100 µM

Query block: Which TGI value belongs to `CC1(C)OC(=O)C(C#N)=C1C[n+]1ccccc1` ?
Result block: > 10 µM

Query block: Given the compound `Cc1c(Cl)cccc1N=NC(=O)NNc1cccc(Cl)c1C` , what is its reported TGI?
Result block: 34.5 µM

Query block: Record request: TGI value, item `Cc1ccc(-c2cc[n+]3c(n2)oc2ccccc23)cc1`
Result block: 57.6 µM

Query block: Could you tell me which TGI is on file for `O=C(c1cccs1)N1CCCN(C(=O)c2cccs2)C1=S` ?
Result block: > 100 µM

Query block: Which measured TGI value corresponds to `CCOC(=O)CCN1C(=O)C(=O)N(c2ccc(OC)cc2)C1=S` ?
Result block: > 100 µM

Query block: Name the recorded TGI for `O=c1[nH]nc(Nc2ccccc2)c2nnn(C3CCCCC3)c12` .
Result block: > 100 µM

Query block: Entry `Cc1c(C)c(C)c(-n2c(=O)n(C)c(=O)n2-c2cc(C(C)(C)C)cc(C(C)(C)C)c2O)c(C)c1C` : reported TGI = ?
Result block: 27.2 µM

Query block: So what does the record say about TGI for O=C(O)c1c2c(cc3c1CC1(Cc4cc5c(cc4C1=O)CCC5)C3)CCC2 (centres undefined) ?
Result block: > 100 µM

Query block: What TGI value was documented for this compound, CCN(CC)CC1CN=C(N)O1 (centres undefined) ?
Result block: > 100 µM

All values here come from PubChem BioAssay (NCI).
